- system.tested: Prostaglandin G/H synthase 1 (Homo sapiens, UniProt P23219)
- Sequence (P23219 whole entry): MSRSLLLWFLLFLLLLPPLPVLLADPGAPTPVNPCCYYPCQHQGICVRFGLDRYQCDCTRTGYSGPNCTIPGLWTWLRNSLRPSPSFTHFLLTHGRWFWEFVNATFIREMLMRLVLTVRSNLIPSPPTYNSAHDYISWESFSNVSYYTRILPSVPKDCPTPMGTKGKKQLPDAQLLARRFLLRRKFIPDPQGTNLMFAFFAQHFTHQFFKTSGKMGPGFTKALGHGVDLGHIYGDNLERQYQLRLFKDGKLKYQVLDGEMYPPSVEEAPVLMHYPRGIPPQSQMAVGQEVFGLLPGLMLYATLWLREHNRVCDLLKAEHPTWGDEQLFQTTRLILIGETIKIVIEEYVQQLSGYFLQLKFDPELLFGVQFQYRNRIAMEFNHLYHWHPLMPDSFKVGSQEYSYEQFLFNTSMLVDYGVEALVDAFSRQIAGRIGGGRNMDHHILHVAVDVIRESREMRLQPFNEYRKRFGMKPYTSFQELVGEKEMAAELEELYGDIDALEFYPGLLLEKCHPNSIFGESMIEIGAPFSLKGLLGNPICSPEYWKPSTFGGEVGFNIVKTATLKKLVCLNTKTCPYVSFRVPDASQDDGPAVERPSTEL
- assay: Compound was tested for its inhibitory activity against recombinant human Prostaglandin G/H synthase 1
pIC50: −log10 of the molar value.
readout.type: pIC50

>  <smiles>
CC(=O)[N-]S(=O)(=O)c1ccc(-c2c(-c3ccccc3)noc2C)cc1.[Na+]

>  <system.tested>
Prostaglandin G/H synthase 1 (Homo sapiens, UniProt P23219)

>  <result.number>
4.00

$$$$

###

- assay: In vivo mean elimination half life in the female dogs by intravenous administration of the compound
- Format: ADME, organism-based, Canis lupus familiaris
- experimental.setup: dog

>  <compound>
CCC(=O)[N-]S(=O)(=O)c1ccc(-c2c(-c3ccccc3)noc2C)cc1.[Na+] [PARECOXIB SODIUM]

>  <half-life [min]>
33.2

$$$$

###

- assay: In vivo mean elimination half life in the cynomolgus monkeys by intravenous administration of the compound
- Format: ADME, organism-based, Macaca fascicularis
- experimental.setup: cynomolgus monkey

>  <molecule>
CCC(=O)[N-]S(=O)(=O)c1ccc(-c2c(-c3ccccc3)noc2C)cc1.[Na+] [PARECOXIB SODIUM]

>  <half-life, h>
1.21

$$$$

###

- system.tested: Prostaglandin G/H synthase 2 (Homo sapiens, UniProt P35354)
- Sequence (P35354 whole entry): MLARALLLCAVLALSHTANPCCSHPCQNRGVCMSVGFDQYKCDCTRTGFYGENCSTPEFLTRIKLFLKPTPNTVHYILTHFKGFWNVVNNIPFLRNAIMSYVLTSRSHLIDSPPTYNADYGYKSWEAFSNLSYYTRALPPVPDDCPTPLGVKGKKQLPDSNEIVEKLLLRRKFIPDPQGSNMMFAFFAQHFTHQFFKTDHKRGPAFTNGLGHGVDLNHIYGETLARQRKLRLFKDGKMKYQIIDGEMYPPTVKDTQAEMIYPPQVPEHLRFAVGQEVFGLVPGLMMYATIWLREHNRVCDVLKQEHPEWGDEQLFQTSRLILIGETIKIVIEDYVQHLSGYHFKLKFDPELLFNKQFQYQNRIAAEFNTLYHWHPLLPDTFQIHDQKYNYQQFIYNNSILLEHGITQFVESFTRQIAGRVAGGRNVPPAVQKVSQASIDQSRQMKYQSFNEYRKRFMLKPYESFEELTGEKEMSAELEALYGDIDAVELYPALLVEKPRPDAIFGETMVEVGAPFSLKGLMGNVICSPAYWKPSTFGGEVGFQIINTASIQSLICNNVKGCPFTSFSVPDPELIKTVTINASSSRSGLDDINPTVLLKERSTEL
pIC50: −log10 of the molar value.

>  <smiles>
CC(=O)[N-]S(=O)(=O)c1ccc(-c2c(-c3ccccc3)noc2C)cc1.[Na+]

>  <pIC50>
4.70

$$$$
